Assay: qHTS assay to identify small molecule agonists of the estrogen related receptor (ERR) signaling pathway from Tox21 library (AID 1224849); further: on the % scale 0 is the no-effect control and ±100 the full control effect; nearly all actives have a fitted effect of over 15% in size
Conditions: ERR reporter cell line, ONE-Glo luciferase, 18 h; at 92.4 µM (top of the series) unless noted
Procedure: National Center for Advancing Translational Sciences [NCATS] NIH Chemical Genomics Center [NCGC] U.S. Environmental Protection Agency [EPA] National Institutes of Environmental Health Sciences [NIEHS] National Toxicology Program [NTP] […] The ERR cells were dispensed at 2,000 cells/5 ul/well in 1536-well white plates using a Multidrop dispenser. […] After 30-minute incubation at room temperature, the luminescence intensity in the plates was measured using a ViewLux plate reader.
Active and inactive are the calls of the source. The call rests on the fitted dose curve.
measurement.name: activity change, positive = activation

Q: activity change, positive = activation lookup needed for CCCCN , thanks.
Result: 3.11% [at 42.5 µM] (inactive)

Q: // returns reported activity change, positive = activation for input CCO[Si](CCCS)(OCC)OCC
Result: 5.01% (inactive)

Q: Sample CC(=O)CCCCn1c(=O)c2c(ncn2C)n(C)c1=O — what was its activity change, positive = activation?
Result: -5.11% [at 42.5 µM] (inactive)

Q: Return reported activity change, positive = activation; argument: C[C@@H](O)[C@H]1C(=O)N2C(C(=O)O)=C(SCCN=CN)C[C@H]12
Result: 5.47% [at 42.5 µM] (inactive)

Q: activity change, positive = activation for Cc1cc(Cl)c(C)cc1Cl ?
Result: -5.35% (inactive)

Q: Looking for the measured activity change, positive = activation of O=C(O)c1cc(Br)c(O)c(Br)c1 , can you help?
Result: 4.86% (inactive)

Q: Entry Cc1cccc(C)c1NC(=O)c1ccccc1C(=O)O : reported activity change, positive = activation = ?
Result: 2.58% [at 42.5 µM] (inactive)

Q: Would you kindly share the measured activity change, positive = activation for C#CC(C)N(C)C(=O)Nc1ccc(Cl)cc1 (stereo unspecified) ?
Result: 5.26% (inactive)

Q: Request the reported activity change, positive = activation associated with CNC(=O)[C@H]1O[C@@H](n2cnc3c(NCc4cc(Cl)ccc4OCc4cc(C)no4)ncnc32)[C@H](O)[C@@H]1N
Result: -1.8% (inactive)

Q: What value of measured activity change, positive = activation is listed for COc1ccc(Br)c(C)c1 ?
Result: -0.068% (inactive)

Q: Field request: activity change, positive = activation | item: C=C(C)C(=O)OCC(C)(C)COC(=O)C(=C)C
Result: 0.866% (inactive)

Q: May I ask what activity change, positive = activation has been recorded for C[C@H](CCC(=O)O)[C@H]1CC[C@H]2[C@@H]3C(=O)C[C@@H]4CC(=O)CC[C@]4(C)[C@H]3CC(=O)[C@]12C ?
Result: -0.444% [at 42.5 µM] (inactive)

Q: Data request, read-out activity change, positive = activation, for CC(=O)NCc1c(I)c(NC(C)=O)c(I)c(C(=O)O)c1I
Result: 6.18% [at 42.5 µM] (inactive)

Q: Need activity change, positive = activation of COc1ccc2c(c1OC)C(=O)O[C@@H]2[C@H]1c2c(cc3c(c2OC)OCO3)CCN1C , thanks.
Result: -16% [at 42.5 µM] (inactive)

Q: Look up activity change, positive = activation: CCCCCCOC(=O)CC
Result: -0.0388% (inactive)

Q: Reported activity change, positive = activation, compound Cc1cccc(C)c1OCC(C)N (stereo unspecified) : ____
Result: -2% [at 42.5 µM] (inactive)
